Sourced from paper PMC11391043

Reported pKi values follow for various compounds
target: rSol g 2.1 protein (Solenopsis geminata, UniProt A0A9E7V488)
Sequence (A0A9E7V488 1-119): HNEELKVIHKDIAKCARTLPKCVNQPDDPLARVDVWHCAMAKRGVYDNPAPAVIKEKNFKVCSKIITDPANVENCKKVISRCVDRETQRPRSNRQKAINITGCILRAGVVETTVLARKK
experimental-protocol: Fluorescence competitive binding assay (FCBA), 1-NPN displacement
run-conditions: pH 7.4; 2 µM rSol g 2.1, 5 µM 1-NPN
pKi: −log10 of the molar value.

- compound: "C=CC(O)CCCCC (stereo not drawn)"
  target: "rSol g 2.1 protein (Solenopsis geminata, UniProt A0A9E7V488)"
  pKi: 5.70
- compound: "C/C1=C\\CC/C(C)=C/CC(C)(C)/C=C/C1"
  target: "rSol g 2.1 protein (Solenopsis geminata, UniProt A0A9E7V488)"
  pKi: 5.97
- compound: "C=CC(=C)CC/C=C(\\C)CCC=C(C)C [(E)-β-Farnesene]"
  target: "rSol g 2.1 protein (Solenopsis geminata, UniProt A0A9E7V488)"
  pKi: 6.14
